molecular target: Disks large homolog 4 (Homo sapiens, UniProt P78352); assay: Displacement of Cy5-GluN2B from N-terminal His-tagged human full length PSD-95alpha PDZ1 domain (61 to 151 residues) without exon 4b expressed in Escherichia coli BL21(DE3)pLysS by fluorescence polarization assay
Sequence (P78352 whole entry, the tested form may be a part): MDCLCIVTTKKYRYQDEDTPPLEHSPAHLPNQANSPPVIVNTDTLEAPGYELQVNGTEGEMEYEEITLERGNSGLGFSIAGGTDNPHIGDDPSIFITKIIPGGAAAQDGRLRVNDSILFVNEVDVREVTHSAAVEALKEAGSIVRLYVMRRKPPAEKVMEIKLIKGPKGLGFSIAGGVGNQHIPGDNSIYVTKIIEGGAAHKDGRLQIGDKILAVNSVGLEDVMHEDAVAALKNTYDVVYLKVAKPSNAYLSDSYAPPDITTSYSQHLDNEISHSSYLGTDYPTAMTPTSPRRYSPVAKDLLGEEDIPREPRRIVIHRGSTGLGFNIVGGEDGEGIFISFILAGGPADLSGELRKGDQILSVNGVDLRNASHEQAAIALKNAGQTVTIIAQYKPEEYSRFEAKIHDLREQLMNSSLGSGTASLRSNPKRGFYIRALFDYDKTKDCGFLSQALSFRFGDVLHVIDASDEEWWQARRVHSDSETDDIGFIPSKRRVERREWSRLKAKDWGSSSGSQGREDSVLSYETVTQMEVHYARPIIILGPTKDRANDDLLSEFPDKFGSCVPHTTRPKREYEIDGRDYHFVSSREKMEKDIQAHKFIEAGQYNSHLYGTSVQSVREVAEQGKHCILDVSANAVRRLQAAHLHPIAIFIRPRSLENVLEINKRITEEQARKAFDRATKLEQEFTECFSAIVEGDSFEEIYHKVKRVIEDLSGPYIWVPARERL
OUTCOME_MEASURE: Ki

Q. Give the measured Ki of "Cc1c(C(=O)O)[nH]c2cc(C(=O)O)c(O)cc12" .
A. > 1000 µM

Q. Give the measured Ki of "Cc1c(C(=O)O)n(CCCC(=O)O)c2cc(C(=O)O)c(OCc3ccccc3)cc12" .
A. > 1000 µM

Q. Give the measured Ki of "CC(C)[C@H](NC(=O)[C@H](C)n1cc([C@@H](N)[C@@H](C)O)nn1)C(=O)O" .
A. > 500 µM
